B1: POMT2 (parent)
chain: VLRSRIRFIHLVTGCVLGSSGKVL

variants of: B1; test: protein stability index of a GFP-peptide fusion (GPS, HEK-293T) (PSI 1-6); higher = more stable; conditions: c terminus: a fixed tail appended;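 also: lentivirally expressed fusions sorted by FACS into six bins by GFP to DsRed ratio, PSI derived from sequencing read proportions per bin multiplied by bin number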
The reader will find reported protein stability index values listed item by item below.
Response field accepts a number only; no unit should be typed.

Worked examples follow.
F8K | 2.4
I6C | 4.38
G14M | 1.85
R3S | 3.27
V23F | 1.77
G21C | 3.88

**Q:** Report protein stability index for `S20T`
**A:** 3.42
